system: Anti-CD28 Fab (SEQ ID NOs: 696, 697)
Sequence (VH, as listed by the source, chain 1 of 2): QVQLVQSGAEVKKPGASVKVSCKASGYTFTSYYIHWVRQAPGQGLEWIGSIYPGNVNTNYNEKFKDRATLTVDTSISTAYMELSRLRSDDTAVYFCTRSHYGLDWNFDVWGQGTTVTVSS
Sequence (VL, as listed by the source, chain 2 of 2): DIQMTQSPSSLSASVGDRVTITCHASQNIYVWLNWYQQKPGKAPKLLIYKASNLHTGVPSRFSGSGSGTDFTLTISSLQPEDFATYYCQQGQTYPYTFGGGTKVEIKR
assayProcedure: phage ELISA on captured anti-CD28 Fab, wells pre-incubated with CD28 antigen as competitor;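 also: crude clonal phage supernatants added without washing, bound phage read out by HRP-coupled anti-M13 antibody, reference wells given blocking buffer only instead of CD28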
measurementName: Anti-CD28 Fab signal in the presence of CD28 (phage binding ELISA)
Write the value as a bare number.

binder	measured
YCEGHSAEYMAKCL (Clonal phage displaying the peptide; not shown: fused to pIII of the bacteriophage) [Phage-634]	0.06

input: Which Anti-CD28 Fab signal in the presence of CD28 (phage binding ELISA) value is on record for YCDGHLGIYMWKCL (Clonal phage displaying the peptide; not shown: fused to pIII of the bacteriophage) [Phage-633] ?
output: 0.08

input: Which Anti-CD28 Fab signal in the presence of CD28 (phage binding ELISA) value is on record for YCAGHLPLYMEKCL (Clonal phage displaying the peptide; not shown: fused to pIII of the bacteriophage) [Phage-641] ?
output: 0.06

input: Which Anti-CD28 Fab signal in the presence of CD28 (phage binding ELISA) value is on record for YCDGHIPIYMSKCL (Clonal phage displaying the peptide; not shown: fused to pIII of the bacteriophage) [Phage-639] ?
output: 0.08

All values here come from patent US20260242478A1.
